Parameter: GI50. Scope: all listed entries.
- Test system: SNU-423 cells
- Experiment summary: MTS cell proliferation assay, SNU-423
- Type: cell-based
- Test settings: Homo sapiens, 120 hrs incubation
Dear colleague, please return just the value in nM, with no unit written.

CCOc1cc(N(C)C)ccc1[C@@H]1CC(=O)Nc2cc3c(cc21)OCO3 [(R)-FQI-34] : 251

stdin: Could you share which GI50 value was measured for CCOc1cc(N(C)C)ccc1C1CC(=O)Nc2cc3c(cc21)OCCO3 (racemic) ?
stdout: 141

stdin: Could you share which GI50 value was measured for CCOc1cc(N(C)C)ccc1[C@H]1CC(=O)Nc2cc3c(cc21)OCO3 [(S)-FQI-34] ?
stdout: 50

stdin: Could you share which GI50 value was measured for CCOc1cc(N(C)C)ccc1[C@H]1CC(=O)Nc2cc3c(cc21)OCCO3 [(S)-FQI-37] ?
stdout: 60

stdin: Could you share which GI50 value was measured for CCOc1cc(N(C)C)ccc1[C@@H]1CC(=O)Nc2cc3c(cc21)OCCO3 [(R)-FQI-37] ?
stdout: 147

stdin: Could you share which GI50 value was measured for CCOc1cc(N(C)C)ccc1C1CC(=O)Nc2cc3c(cc21)OCO3 (stereo not drawn) ?
stdout: 384

Sourced from patent US11420977B2
